Each item that follows carries a reported MC5R IC50.
biological target: human recombinant MC5R (CHO-K1/Ga15 stable cell line, GenScript) (human, UniProt P33032 1-325); experiment: cell-based or functional assay
Sequence (P33032 whole entry): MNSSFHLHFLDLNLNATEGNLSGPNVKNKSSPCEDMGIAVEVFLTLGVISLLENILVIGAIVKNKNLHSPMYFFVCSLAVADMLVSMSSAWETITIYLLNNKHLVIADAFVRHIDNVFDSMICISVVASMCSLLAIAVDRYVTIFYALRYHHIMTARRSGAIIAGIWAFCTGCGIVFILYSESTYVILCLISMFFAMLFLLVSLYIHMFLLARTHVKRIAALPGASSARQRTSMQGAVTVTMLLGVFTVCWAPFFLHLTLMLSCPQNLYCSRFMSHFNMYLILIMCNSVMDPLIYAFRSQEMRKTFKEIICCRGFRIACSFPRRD
Starred links: 1 amine or outer side, 2 acyl side, 3 side chain; linkers in the order of their positions; H or OH if unused. Positions of bridges follow the written chain, without caps; N, C: chain ends. Non-standard residues stand in square brackets, D forms with d. dTyr(Me) = O-methyl-D-tyrosine, COc1ccc(C[C@@H](N[*:1])C(=O)[*:2])cc1; dLys(N3) = [N-]=[N+]=NCCCC[C@@H](N)C(=O)O; Lys(N3) = [N-]=[N+]=NCCCC[C@H](N)C(=O)O; NMeR = CN[C@@H](CCCNC(=N)N)C(=O)O; NMeF = CN[C@@H](Cc1ccccc1)C(=O)O; Nle = CCCC[C@H](N)C(=O)O; Pra = C#CC[C@H](N)C(=O)O
Write the value in nM as a bare number.

Exam item: What measured MC5R IC50 goes with Ac-SYSMEHFRWGK-NH2 [KR-006] ?
Marked response: 122

Exam item: What measured MC5R IC50 goes with Ac-SYSMEHFRWGKP-NH2 [KR-005] ?
Marked response: 79.8

Exam item: What measured MC5R IC50 goes with Ac-[Nle][Lys(N3)]H[dTyr(Me)]RW[Pra]K-NH2 (triazole 2-7; not fully specified; printed as Ac-Nle-[Lys(N3)-His-DTyr(Me)-Arg-Trp-Pra]-Lys-NH2) [KR-058] ?
Marked response: 195

Exam item: What measured MC5R IC50 goes with Ac-[Nle][dLys(N3)]H[dF]RW[Pra]K-NH2 (triazole 2-7; not fully specified; printed as Ac-Nle-[DLys(N3)-His-DPhe-Arg-Trp-Pra]-Lys-NH2) [KR-069] ?
Marked response: 161

Exam item: What measured MC5R IC50 goes with Ac-SYSMEHF[NMeR]WGKPV-NH2 [KR-023] ?
Marked response: 4540

Exam item: What measured MC5R IC50 goes with Ac-SYSMEH[NMeF]RWGKPV-NH2 [KR-022] ?
Marked response: 698

Exam item: What measured MC5R IC50 goes with XXHFRWX (Ac-Nle-[Dab-His-DPhe-Arg-Trp-Dab] Linker: succinic acid-NH2) [KR-041] ?
Marked response: 44.3

Where do the numbers come from? From patent US20260152527A1.
